target-entity: Sentrin-specific protease 8 (Homo sapiens) (UniProt Q96LD8)
Sequence (Q96LD8 whole entry, looked up): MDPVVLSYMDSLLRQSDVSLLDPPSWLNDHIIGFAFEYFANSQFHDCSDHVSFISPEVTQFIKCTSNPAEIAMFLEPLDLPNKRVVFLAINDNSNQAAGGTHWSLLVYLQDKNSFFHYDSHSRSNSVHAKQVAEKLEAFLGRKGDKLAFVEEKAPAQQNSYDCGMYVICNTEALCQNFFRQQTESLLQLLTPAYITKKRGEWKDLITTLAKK
protocol-notes: human SENP8 protease inhibitors, confirmation, biochemical, Nedd8 protein substrate, single concentration (AID 624319)
cond: purified SENP8, Nedd8-AMC/pro-Nedd8 cleavage fluorescence, 30 min; at 25 µM
Out of some 1,400 compounds screened, about 210 (15%) were called active. No stated cut-off is given here; in the data, active means inhibition mostly above about 39% (no sharp cut-off); inactive means mostly below about 34%. The list is a sample of the results.
Parameter call: string, one of active, inactive

CC(C)[C@H](NC(=O)N1CC(=O)Nc2ccccc21)C(=O)N[C@@H](Cc1c[nH]c2ccccc12)C(=O)O
inactive
COC(=O)CCCC1=CC2=CC(=O)C(C)(OC(=O)c3cccs3)C(=O)C2=CN1CC(C)C (stereo not given)
active
Oc1ccc(N=Cc2sc3ccccc3c2Cl)cc1
inactive
CCc1ccccc1NC(=O)[C@@H]1CCC(=O)N1C1OC(=O)c2c1ccc(OC)c2OC (stereo not given in full)
inactive
Cc1ccc(C(=O)N/N=C\c2cc(Br)c(Br)o2)cn1
inactive
Cn1c2ccc(F)cc2c2nnc(NN)nc21
inactive

q: Tell me the recorded outcome of this test for CN1CCN(S(=O)(=O)c2ccc(N3CCN(c4ccccc4O)CC3)c([N+](=O)[O-])c2)CC1 .
a: inactive

q: Outcome logged for COc1cc(C(=S)N2CCOCC2)cc(OC)c1OC(=O)c1cc([N+](=O)[O-])cc([N+](=O)[O-])c1 in this assay:
a: inactive

q: // param item: O=C(Nc1ccc(C(=O)O)c(O)c1)c1ccccc1 ; yields the recorded call
a: inactive

q: Check the results log: what was the call for COc1ccc(C(=O)c2c3ccc([N+](=O)[O-])cc3[n+]([O-])n2CCCN)cc1 ?
a: active

q: Short answer needed: outcome of this test for Cc1cc(C)c(/C=C2\C(=O)Nc3ccccc32)[nH]1 ?
a: inactive

q: Name the outcome recorded for COc1ccc(-c2[nH][nH]c(=O)c2NC(=O)c2ccc([N+](=O)[O-])cc2)cc1 in the assay.
a: inactive

q: Each compound tested received a call. Report the one for O=C(c1cccc(F)c1)N1CCN(c2ccc([N+](=O)[O-])c3cccnc23)CC1 .
a: inactive

q: Returns: the outcome recorded for Cc1ccc(NS(=O)(=O)c2ccc(N/N=C/c3ccccc3OCC(=O)O)c([N+](=O)[O-])c2)c(C)c1 in this assay.
a: inactive

q: For Nc1ccc2nc3c(=O)[nH]c(=S)[nH]c3nc2c1 , which call appears in the assay record?
a: inactive

q: What did the test return for CCOc1ccc(NCCC(=O)c2ccc3c(c2)OCO3)cc1 ?
a: inactive

====

target-entity: Sentrin-specific protease 8 (Homo sapiens)
protocol-notes: human SENP8 protease inhibitors, confirmation, biochemical, Nedd8 protein substrate, single concentration (AID 624319)
cond: purified SENP8, Nedd8-AMC/pro-Nedd8 cleavage fluorescence, 30 min; at 25 µM; stronger effect = higher value
Hit rate of the full screen: of about 1,400 compounds, about 210 (15%) were called active. These entries were drawn from the full list.
readout-kind: inhibition (%)
Give a bare numeral; the unit % is implied.

Some solved cases for reference:
O=[N+]([O-])c1ccc(C=Nc2ccc(Cl)cc2Cl)s1
14.4
O=C(COC(=O)c1ccc([N+](=O)[O-])o1)NC12CC3CC(CC(C3)C1)C2
81.4
NN=C(NN=Cc1ccccc1)c1ccccc1
43.8
CCOC(=O)c1ccc(N2C(=O)CC(N(C)Cc3ccccc3)C2=O)cc1 (centres undefined)
18.6
O=C(Cc1ccccc1)NC(=S)Nc1ccc(N2CCCCC2)cc1
11.4
COc1ccc(S(=O)(=O)Nc2ccc3cn[nH]c3c2)cc1[N+](=O)[O-]
14.1
CC1(C)C2CCC1(C)C(OC(=O)c1ccc(O)cc1)C2 (centres undefined)
18.1
COC(=O)C1=C(C(=O)c2ccc(C)cc2)C(c2ccccc2)n2nnnc2N1 (centres undefined)
18.1
Cc1cc([N+](=O)[O-])c(NC2CCCCC2)c([N+](=O)[O-])c1
11
CC(C)Cc1nnc(NC(=O)CCC(=O)Nc2ccc3cn[nH]c3c2)s1
2.31

Notebook: CCc1cccc(C)c1NC(=O)COC(=O)CC1CCCC1 , inhibition read as 29.1

The reported inhibition of the compound Cc1ccc(C(=O)c2ccc(N3CCN(C)CC3)c([N+](=O)[O-])c2)cc1 was 14.5

====

target-entity: Sentrin-specific protease 8 (Homo sapiens)
protocol-notes: human SENP8 protease inhibitors, confirmation, biochemical, Nedd8 protein substrate, single concentration (AID 624319)
cond: purified SENP8, Nedd8-AMC/pro-Nedd8 cleavage fluorescence, 30 min; at 25 µM
Out of some 1,400 compounds screened, about 210 (15%) were called active. Rule as the data show it: active = inhibition mostly above about 39% (no sharp cut-off); inactive = mostly below about 34%. These entries were drawn from the full list.
Select the correct class. Options are active, inactive and nothing else.

Use these answered entries as a reference point.
O=C(Nc1cc2c3c(c1)C1CCCC1CN3CC1CCCC21)c1ccc([N+](=O)[O-])cc1 (configuration not stated)
inactive
CCOCCCn1c(NN)nc2ccccc2c1=O
inactive
CCCCNCCS(=O)(=O)NCc1ccccc1
inactive
O=P(O)(CP(=O)(c1ccccc1)c1ccccc1)c1ccccc1O
inactive
Cc1[nH][nH]c(=O)c1C(c1ccc(-c2ccc(Cl)cc2)o1)c1c(C)[nH][nH]c1=O
active
O=C1CC(c2ccccc2)=NN1c1ccc([N+](=O)[O-])cc1
active

Continue with the molecule presented below.
q: What classification did CN1CCc2ccccc2C1Cc1ccccc1NC(=O)c1sc2ccccc2c1Cl (configuration not stated) end up with in this test?
a: inactive
